Each recorded value in this set is attributed to patent US12435087B2.

- assay system: DCN1 (DCUND1) protein PONY domain (Homo sapiens (Human), UniProt Q96GG9)
- Sequence (Q96GG9 60-248): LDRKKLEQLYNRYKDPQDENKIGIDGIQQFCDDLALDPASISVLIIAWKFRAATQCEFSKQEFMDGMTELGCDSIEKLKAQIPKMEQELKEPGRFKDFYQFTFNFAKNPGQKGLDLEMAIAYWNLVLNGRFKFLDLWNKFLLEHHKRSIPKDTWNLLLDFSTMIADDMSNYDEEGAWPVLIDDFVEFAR
- measurement notes: TR-FRET assay (binding to DCN-1, displacement of FAM-labeled probe)
- assay context: 24 hr after treatment with compound; read-out: TR FRET IC50 24 hr
- Description: The TR-FRET assay was designed following the Scott et al. protocol (Scott et al., Nat Chem Biol. 2017 August; 13(8): 850-857. doi:10.1038/nchembio.2386). […] The TR-FRET ratio between Tb-DCN1 and the FAM-labeled probe was measured in a 384-well opti-plate (Perkin Elmer) using a plate reader (BMG) at 1, 5, and 24 hrs after treatment with compound (final DMSO concentration of 0.1%). […]
pIC50: −log10 of the molar value.
This section presents compounds with their documented pIC50 values.

>>> recorded_result("CCN1C(=O)[C@@H](NC(=O)c2cccc(C(F)(F)F)c2)[C@H](c2cccc(CNC(=O)/C=C/CN(C)C)c2)c2cnn(-c3ccccc3)c21 (racemic) [Compound I-53]")
"5.52 to 6.00"

// C=C(CN1CCC(F)(F)C1)C(=O)NCc1cccc([C@@H]2c3cnn(-c4ccccc4)c3N(CC)C(=O)[C@H]2NC(=O)c2cccc(C(F)(F)F)c2)c1 [Compound I-44] : pIC50 value = ≥ 6.70

// pIC50 lookup, compound = CCN1C(=O)[C@@H](NC(=O)c2cccc(C(F)(F)F)c2)[C@H](c2ccccc2CNC(=O)C(F)Cl)c2cnn(-c3ccccc3)c21 (mixture of isomers) [Compound I-105] , result: 5.52 to 6.00

Input CCN1C(=O)[C@@H](NC(=O)c2cccc(C(F)(F)F)c2)[C@H](c2cccc(CN(C)C/C=C/C(=O)OC(C)(C)C)c2)c2cnn(-c3ccccc3)c21 [Compound I-238] . Output pIC50: 5.52 to 6.00

pIC50 in this record for CCN1C(=O)[C@@H](NC(=O)c2cccc(C(F)(F)F)c2)[C@@H](c2cccc(NC(=O)[C@H](C)Cl)c2)c2c(C)nn(-c3ccccc3)c21 (mixture of isomers) [Compound I-16] : < 5.52

Recorded result, C/C=C(\CN1CC2(COC2)C1)C(=O)N(C)Cc1cccc([C@@H]2c3cnn(-c4ccccc4)c3N(CC)C(=O)[C@H]2NC(=O)c2nccc(C(F)(F)F)n2)c1 [Compound I-235] , pIC50: 5.52 to 6.00

C=C(CN1CCOCC1)C(=O)NCc1cccc([C@@H]2c3cnn(-c4ccccc4)c3N(CC)C(=O)[C@H]2NC(=O)c2ccn(CC(F)F)n2)c1 [Compound I-364] yielded pIC50 of ≥ 6.70
